Assay System: Histone deacetylase 8 (Homo sapiens)
Sequence (Q9BY41 whole entry): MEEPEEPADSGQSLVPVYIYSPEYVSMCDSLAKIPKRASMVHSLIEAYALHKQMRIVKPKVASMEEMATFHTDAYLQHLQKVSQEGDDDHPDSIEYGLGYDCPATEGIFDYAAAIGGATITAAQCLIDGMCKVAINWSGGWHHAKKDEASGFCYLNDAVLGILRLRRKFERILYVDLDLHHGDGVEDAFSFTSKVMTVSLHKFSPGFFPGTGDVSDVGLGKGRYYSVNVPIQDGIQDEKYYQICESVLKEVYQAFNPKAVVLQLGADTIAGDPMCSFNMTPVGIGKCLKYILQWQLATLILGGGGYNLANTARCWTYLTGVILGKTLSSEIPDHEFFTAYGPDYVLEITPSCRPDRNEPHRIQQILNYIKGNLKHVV
Measurement Description: Inhibition of human recombinant HDAC8 using Boc-Lys-(Tfa)-AMC as substrate preincubated for 5 mins followed by substrate addition and measured after 90 mins by fluorescence based microplate reader analysis
Reported Metric: IC50

I would be grateful if you could share the reported IC50 for CN(C)c1ccc(CNC(=O)c2ccc(-c3noc(C(F)(F)F)n3)cc2)cc1 .
> 100 µM

I would be grateful if you could share the reported IC50 for CN(C(=O)c1ccc(-c2noc(C(F)(F)F)n2)cc1)c1ccccc1 .
71.8 µM

I would be grateful if you could share the reported IC50 for CN1CCN(C(=O)c2ccc(-c3noc(C(F)(F)F)n3)cc2)CC1 .
16.1 µM

I would be grateful if you could share the reported IC50 for CCN(CC)CCNC(=O)c1ccc(-c2noc(C(F)(F)F)n2)cc1 .
4.26 µM

I would be grateful if you could share the reported IC50 for O=C(Nc1cnc2ccccc2c1)c1ccc(-c2noc(C(F)(F)F)n2)cc1 .
> 100 µM

I would be grateful if you could share the reported IC50 for CCN(CC)CCCCNC(=O)c1ccc(-c2noc(C(F)(F)F)n2)cc1 .
6.72 µM

I would be grateful if you could share the reported IC50 for CN(Cc1ccccc1)C(=O)c1ccc(-c2noc(C(F)(F)F)n2)cc1 .
> 100 µM

I would be grateful if you could share the reported IC50 for CCN(CC)CCN(C)C(=O)c1ccc(-c2noc(C(F)(F)F)n2)cc1 .
10.8 µM

I would be grateful if you could share the reported IC50 for O=C(NOCc1coc(-c2ccccc2)n1)c1ccc(-c2noc(C(F)(F)F)n2)cc1 .
> 100 µM

I would be grateful if you could share the reported IC50 for O=C(NCCc1c[nH]c2ccccc12)c1ccc(-c2noc(C(F)(F)F)n2)cc1 .
> 100 µM

I would be grateful if you could share the reported IC50 for O=C(NOCCN1CCOCC1)c1ccc(-c2noc(C(F)(F)F)n2)cc1 .
7.13 µM

====

Assay System: UniProtKB P56524
Sequence (P56524 whole entry, the tested form may be a part): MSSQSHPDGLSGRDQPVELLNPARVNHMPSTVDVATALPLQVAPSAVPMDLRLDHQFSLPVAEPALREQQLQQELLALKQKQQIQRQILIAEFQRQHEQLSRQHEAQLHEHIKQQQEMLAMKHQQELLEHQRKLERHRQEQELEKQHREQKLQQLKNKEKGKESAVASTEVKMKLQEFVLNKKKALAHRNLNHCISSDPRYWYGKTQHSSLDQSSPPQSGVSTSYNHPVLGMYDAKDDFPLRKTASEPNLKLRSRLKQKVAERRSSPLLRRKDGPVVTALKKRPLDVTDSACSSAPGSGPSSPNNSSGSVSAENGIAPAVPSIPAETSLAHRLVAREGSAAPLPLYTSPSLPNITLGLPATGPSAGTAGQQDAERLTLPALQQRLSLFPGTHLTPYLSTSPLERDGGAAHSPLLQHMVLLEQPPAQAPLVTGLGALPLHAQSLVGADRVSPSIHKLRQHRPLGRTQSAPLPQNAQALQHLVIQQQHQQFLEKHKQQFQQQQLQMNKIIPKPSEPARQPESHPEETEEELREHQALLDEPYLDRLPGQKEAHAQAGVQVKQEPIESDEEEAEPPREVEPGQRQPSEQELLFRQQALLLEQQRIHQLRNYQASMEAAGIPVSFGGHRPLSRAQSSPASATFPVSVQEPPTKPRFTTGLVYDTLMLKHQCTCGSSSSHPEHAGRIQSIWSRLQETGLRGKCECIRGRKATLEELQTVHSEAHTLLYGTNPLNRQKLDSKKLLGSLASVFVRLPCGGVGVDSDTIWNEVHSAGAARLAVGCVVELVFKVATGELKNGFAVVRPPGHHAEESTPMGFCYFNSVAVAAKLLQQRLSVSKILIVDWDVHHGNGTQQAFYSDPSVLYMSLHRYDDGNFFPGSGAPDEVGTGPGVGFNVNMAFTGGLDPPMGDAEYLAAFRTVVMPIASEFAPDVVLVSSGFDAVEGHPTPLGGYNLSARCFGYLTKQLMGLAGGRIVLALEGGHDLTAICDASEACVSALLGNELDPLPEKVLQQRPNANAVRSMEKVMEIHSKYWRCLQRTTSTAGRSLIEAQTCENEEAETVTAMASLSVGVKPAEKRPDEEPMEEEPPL
Measurement Description: Inhibition of GST-tagged HDAC4 (unknown origin)
Reported Metric: IC50 (nM)
Give the number; nM is assumed, so skip it.

Please tell me: IC50 of CCN(CC)CCNC(=O)c1ccc(-c2noc(C(F)(F)F)n2)cc1 , system UniProtKB P56524?
17

====

Assay System: UniProtKB P56524
Measurement Description: Inhibition of human recombinant TEV-8His-tagged HDAC4 (648 to 1057 residues) expressed in Escherichia coli (DE3) Rosetta cells using Boc-Lys-(Tfa)-AMC as substrate preincubated for 5 mins followed by substrate addition and measured after 90 mins by fluorescence based microplate reader analysis
Reported Metric: IC50 (nM)
Give the number; nM is assumed, so skip it.

I would be grateful if you could share the reported IC50 for O=C(Nc1cnc2ccccc2c1)c1ccc(-c2noc(C(F)(F)F)n2)cc1 .
5540

I would be grateful if you could share the reported IC50 for CN(C)c1ccc(CNC(=O)c2ccc(-c3noc(C(F)(F)F)n3)cc2)cc1 .
940

I would be grateful if you could share the reported IC50 for O=C(NOCc1coc(-c2ccccc2)n1)c1ccc(-c2noc(C(F)(F)F)n2)cc1 .
118

====

Could you please report measured log10 of IC50 for the items listed next?
Assay System: Protein deacetylase HDAC6 (Homo sapiens, UniProt Q9UBN7)
Sequence (Q9UBN7 whole entry): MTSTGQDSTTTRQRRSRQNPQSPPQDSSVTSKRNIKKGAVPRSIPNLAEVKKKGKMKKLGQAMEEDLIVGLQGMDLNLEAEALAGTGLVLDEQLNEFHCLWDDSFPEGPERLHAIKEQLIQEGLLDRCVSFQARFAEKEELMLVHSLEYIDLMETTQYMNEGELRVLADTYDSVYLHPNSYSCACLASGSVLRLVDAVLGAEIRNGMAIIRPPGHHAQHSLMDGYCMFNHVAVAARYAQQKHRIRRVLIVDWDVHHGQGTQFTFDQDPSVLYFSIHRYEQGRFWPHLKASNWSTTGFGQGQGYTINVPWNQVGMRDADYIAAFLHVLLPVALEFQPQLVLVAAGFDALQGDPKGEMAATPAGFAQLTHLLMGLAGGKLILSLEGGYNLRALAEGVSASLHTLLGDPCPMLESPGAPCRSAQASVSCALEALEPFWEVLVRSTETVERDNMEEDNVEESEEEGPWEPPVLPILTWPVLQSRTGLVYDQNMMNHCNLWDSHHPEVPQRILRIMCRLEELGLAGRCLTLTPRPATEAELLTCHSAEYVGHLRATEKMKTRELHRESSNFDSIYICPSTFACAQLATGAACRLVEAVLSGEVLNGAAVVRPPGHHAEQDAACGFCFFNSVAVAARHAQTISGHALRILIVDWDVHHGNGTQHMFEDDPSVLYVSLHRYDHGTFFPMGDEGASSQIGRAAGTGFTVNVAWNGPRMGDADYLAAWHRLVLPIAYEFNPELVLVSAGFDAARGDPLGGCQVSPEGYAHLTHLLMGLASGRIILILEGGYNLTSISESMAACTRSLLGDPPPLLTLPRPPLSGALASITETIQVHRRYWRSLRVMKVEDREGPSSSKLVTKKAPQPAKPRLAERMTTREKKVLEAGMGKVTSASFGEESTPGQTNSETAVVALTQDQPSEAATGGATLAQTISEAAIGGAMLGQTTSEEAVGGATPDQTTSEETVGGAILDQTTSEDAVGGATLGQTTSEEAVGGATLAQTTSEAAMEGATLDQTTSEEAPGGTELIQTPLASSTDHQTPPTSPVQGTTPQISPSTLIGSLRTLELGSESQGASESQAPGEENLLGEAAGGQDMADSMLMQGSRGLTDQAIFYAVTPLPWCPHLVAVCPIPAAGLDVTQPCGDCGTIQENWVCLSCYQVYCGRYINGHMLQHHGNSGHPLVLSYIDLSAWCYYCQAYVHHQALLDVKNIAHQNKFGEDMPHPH
Measurement Description: Inhibition of human recombinant HDAC6 using Boc-Lys(Ac)-AMC as substrate preincubated for 5 mins followed by substrate addition and measured after 90 mins by fluorescence based microplate reader analysis
# values: log10(IC50), units µM

I would be grateful if you could share the reported log10 of IC50 for CN(C(=O)c1ccc(-c2noc(C(F)(F)F)n2)cc1)c1ccccc1 .
1.29

I would be grateful if you could share the reported log10 of IC50 for CN(Cc1ccccc1)C(=O)c1ccc(-c2noc(C(F)(F)F)n2)cc1 .
0.31

I would be grateful if you could share the reported log10 of IC50 for CCN(CC)CCCCNC(=O)c1ccc(-c2noc(C(F)(F)F)n2)cc1 .
0.75

I would be grateful if you could share the reported log10 of IC50 for CN1CCN(C(=O)c2ccc(-c3noc(C(F)(F)F)n3)cc2)CC1 .
1.74

I would be grateful if you could share the reported log10 of IC50 for CCN(CC)CCNC(=O)c1ccc(-c2noc(C(F)(F)F)n2)cc1 .
0.76

I would be grateful if you could share the reported log10 of IC50 for O=C(NOCCN1CCOCC1)c1ccc(-c2noc(C(F)(F)F)n2)cc1 .
1.26
